These data points were gathered from patent US11015061B2.

EXPERIMENTAL_PROTOCOL: Visible light transmittance of chloroform solution
Assay type: physicochemical
ASSAY_SETUP: spectrum converted to transmittance 10% at near-infrared maximum absorption wavelength
Procedure: The visible light transmittance of the phthalocyanine-based compound of the present invention and the comparative example compounds was measured by the following measurement method. […] The absorption spectrum measured as above was converted such that the absorbance became 1.0, that is, the transmittance became 10% at the maximum absorption wavelength in a near-infrared range, thereby obtaining a transmission spectrum. […]
Could you please report measured Transmittance (%) 610 nm for the items listed next?
Value expressed in %; do not type the unit.

Indicate the recorded Transmittance (%) 610 nm value for this molecule: CC(C)(C)c1ccc(OCCCCc2ccc(CCCCOc3ccc(C(C)(C)C)cc3)c3c2-c2nc-3nc3[n-]c(nc4nc(nc5[n-]c(n2)c2c(CCCCOc6ccc(C(C)(C)C)cc6)ccc(CCCCOc6ccc(C(C)(C)C)cc6)c52)-c2c(CCCCOc5ccc(C(C)(C)C)cc5)ccc(CCCCOc5ccc(C(C)(C)C)cc5)c2-4)c2c(CCCCOc4ccc(C(C)(C)C)cc4)ccc(CCCCOc4ccc(C(C)(C)C)cc4)c32)cc1.[O]=[V+2] [Specific Example (1)-42] 88.5

Give recorded Transmittance (%) 610 nm. COc1cccc(OCCCCc2ccc(CCCCOc3cccc(OC)c3)c3c2-c2nc-3nc3[n-]c(nc4nc(nc5[n-]c(n2)c2c(CCCCOc6cccc(OC)c6)ccc(CCCCOc6cccc(OC)c6)c52)-c2c(CCCCOc5cccc(OC)c5)ccc(CCCCOc5cccc(OC)c5)c2-4)c2c(CCCCOc4cccc(OC)c4)ccc(CCCCOc4cccc(OC)c4)c32)c1.[Cu+2] [Specific Example (1)-40] 88.0

For the molecule COc1cccc(OC)c1OCCCCc1ccc(CCCCOc2c(OC)cccc2OC)c2c1-c1nc-2nc2[n-]c(nc3nc(nc4[n-]c(n1)c1c(CCCCOc5c(OC)cccc5OC)ccc(CCCCOc5c(OC)cccc5OC)c41)-c1c(CCCCOc4c(OC)cccc4OC)ccc(CCCCOc4c(OC)cccc4OC)c1-3)c1c(CCCCOc3c(OC)cccc3OC)ccc(CCCCOc3c(OC)cccc3OC)c21.[O]=[V+2] [Specific Example (1)-44] , report Transmittance (%) 610 nm. 89.0

* * *

Please provide measured Visible light transmittance for the entries that follow.
EXPERIMENTAL_PROTOCOL: Visible light transmittance of laminated glass sample
Assay type: physicochemical
ASSAY_SETUP: 380 to 780 nm, JIS R3212
Description: The phthalocyanine-based compound (Specific Example (1)-30) produced in Example 1 (0.013 g) was dissolved in 40 g of triethylene glycol-di-2-ethylhexanoate as an organic ester plasticizer. […] By using U-3500 type recording spectrophotometer produced by Hitachi, Ltd. as a measurement instrument, the visible light transmittance of the laminated glass samples at a wavelength of 380 to 780 nm was measured based on JIS R3212 “Test methods of safety glazing materials for road vehicles”.
Output spec: scalar in %, unitless text.

Name the recorded Visible light transmittance of the item COc1cccc(OCCCCc2ccc(CCCCOc3cccc(OC)c3)c3c2-c2nc-3nc3[n-]c(nc4nc(nc5[n-]c(n2)c2c(CCCCOc6cccc(OC)c6)ccc(CCCCOc6cccc(OC)c6)c52)-c2c(CCCCOc5cccc(OC)c5)ccc(CCCCOc5cccc(OC)c5)c2-4)c2c(CCCCOc4cccc(OC)c4)ccc(CCCCOc4cccc(OC)c4)c32)c1.[O]=[V+2] in your answer. 78

Quick one: give measured Visible light transmittance for COCCCCc1ccc(CCCCOC)c2c1-c1nc-2nc2[n-]c(nc3nc(nc4[n-]c(n1)c1c(CCCCOC)ccc(CCCCOC)c41)-c1c(CCCCOC)ccc(CCCCOC)c1-3)c1c(CCCCOC)ccc(CCCCOC)c21.[O]=[V+2] 78.1

Provide Visible light transmittance value for the following compound: COc1cccc(OCCCCc2ccc(CCCCOc3cccc(OC)c3)c3c2-c2nc-3nc3[n-]c(nc4nc(nc5[n-]c(n2)c2c(CCCCOc6cccc(OC)c6)ccc(CCCCOc6cccc(OC)c6)c52)-c2c(CCCCOc5cccc(OC)c5)ccc(CCCCOc5cccc(OC)c5)c2-4)c2c(CCCCOc4cccc(OC)c4)ccc(CCCCOc4cccc(OC)c4)c32)c1.[Cu+2] 77.9

Quick one: give measured Visible light transmittance for COCc1ccc(COC)c2c1-c1nc-2nc2[n-]c(nc3nc(nc4[n-]c(n1)c1c(COC)ccc(COC)c41)-c1c(COC)ccc(COC)c1-3)c1c(COC)ccc(COC)c21.[O]=[V+2] [Comparative Example Compound (a), reference compound] 75

Give Visible light transmittance for [O]=[V+2].c1ccc(OCCCCc2ccc(CCCCOc3ccccc3)c3c2-c2nc-3nc3[n-]c(nc4nc(nc5[n-]c(n2)c2c(CCCCOc6ccccc6)ccc(CCCCOc6ccccc6)c52)-c2c(CCCCOc5ccccc5)ccc(CCCCOc5ccccc5)c2-4)c2c(CCCCOc4ccccc4)ccc(CCCCOc4ccccc4)c32)cc1 77.9

Tell us which Visible light transmittance value is on record for COc1cccc(OC)c1OCCCCc1ccc(CCCCOc2c(OC)cccc2OC)c2c1-c1nc-2nc2[n-]c(nc3nc(nc4[n-]c(n1)c1c(CCCCOc5c(OC)cccc5OC)ccc(CCCCOc5c(OC)cccc5OC)c41)-c1c(CCCCOc4c(OC)cccc4OC)ccc(CCCCOc4c(OC)cccc4OC)c1-3)c1c(CCCCOc3c(OC)cccc3OC)ccc(CCCCOc3c(OC)cccc3OC)c21.[Cu+2] 77.4
